molecular target: CK2A1 (Homo sapiens, UniProt P68400); construct: purchased Eurofins; assay: Radiometric kinase assay (Eurofins), CK2A1; format: biochemical; details: Table 8; quinazolinones; read-out: CK2A1 RAD IC50
Sequence (P68400 whole entry): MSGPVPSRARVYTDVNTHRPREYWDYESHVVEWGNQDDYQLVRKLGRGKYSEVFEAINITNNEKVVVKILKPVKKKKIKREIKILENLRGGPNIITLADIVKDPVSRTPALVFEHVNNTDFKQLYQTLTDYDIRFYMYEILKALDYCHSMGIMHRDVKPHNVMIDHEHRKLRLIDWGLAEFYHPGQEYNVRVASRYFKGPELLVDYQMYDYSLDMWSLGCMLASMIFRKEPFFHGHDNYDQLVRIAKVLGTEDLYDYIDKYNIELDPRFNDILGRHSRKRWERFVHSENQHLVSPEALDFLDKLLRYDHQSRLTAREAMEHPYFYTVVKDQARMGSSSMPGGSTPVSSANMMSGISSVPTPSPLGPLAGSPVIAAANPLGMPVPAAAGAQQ
Consider the following compounds and their measured IC50 readings.
# value in nM; strip the unit string

Some compounds with known IC50 results, for comparison:
1. COc1nc(-c2nc3c(Br)cc(Br)cc3c(=O)[nH]2)ccc1O [JKT.968C] ... 27
2. O=c1[nH]c(-c2ccc(O)c(Br)c2)nc2c(Br)nc(Br)cc12 [JKT.880B] ... 95
3. COc1cc(-c2nc3c(Br)cccc3c(=O)[nH]2)ccc1O [JKT.832A] ... 3940

Kindly consider the entry below.
Lookup: Quick check: IC50 of O=c1[nH]c(-c2ccc(O)c(C(F)(F)F)c2)nc2c(Cl)cc(Cl)cc12 [JKT.809A] ?
Found: 82
